system: K-562 leukemia; test: NCI tumour cell line growth inhibition, 48 h

- Molecule: "[N-]=[N+]=Nc1c(C=O)c(=O)n2c3c(cccc13)CCC2"
  TGI: "13 µM"
- Molecule: "CC(CCC(=O)O)[C@H]1CCC2[C@@H]3CC[C@@H]4CC(O)CC[C@]4(C)C3CC[C@@]21C (stereo partly drawn)"
  TGI: "> 100 µM"
- Molecule: "COc1cc2c(c(OC)c1)C1c3ccccc3NC(=O)N1CC2 (stereo not drawn)"
  TGI: "> 100 µM"

====

system: COLO 205 colon; test: NCI tumour cell line growth inhibition, 48 h; in the data active = GI50 below about 0.43 µM; inactive = the rest
Labels: true for active, false for inactive

- Compound: "N#Cc1c(N2CCCC2)[nH]c(=O)c(C(c2c(Cl)cccc2Cl)c2c(O)c(C#N)c(N3CCCC3)[nH]c2=O)c1O"
  Qualitative Label: "false"
- Compound: "COc1ccc2sc3c(NCCCN(C)C)nc4ccccc4c3c(=O)c2c1"
  Qualitative Label: "false"
- Compound: "COc1ccc(/C(C#N)=C/c2ccccc2OC)cc1"
  Qualitative Label: "false"
- Compound: "CN(C)CCNc1c2c(c(NCCN(C)C)c3[nH]ccc13)C(=O)c1ccccc1C2=O"
  Qualitative Label: "false"
- Compound: "Cc1cc(N(CCCl)CCCl)ccc1C=Nc1ccc(-c2csc(Cc3ccccc3)n2)cc1"
  Qualitative Label: "false"
- Compound: "CC[C@@H](C(=O)O)C1CC[C@H](C)C([C@@H](C)[C@H](O)[C@H](C)C(=O)[C@H](CC)C2O[C@]3(C=C[C@@H](O)[C@]4(CC[C@@](C)(C5CC[C@](O)(CC)[C@H](C)O5)O4)O3)[C@H](C)C[C@@H]2C)O1 (some centres undefined)"
  Qualitative Label: "true"
- Compound: "COc1ccc(-c2csc(N(C(=O)N3CCN(c4cc5c(cc4F)c(=O)c(C(=O)O)cn5C4CC4)CC3)c3ccccc3)n2)cc1"
  Qualitative Label: "false"
- Compound: "COc1ccc(OC)c(/C=C2\\SC(=S)NC2=O)c1"
  Qualitative Label: "false"
- Compound: "CCc1nccc2c1nc(-c1nonc1N)n2CC"
  Qualitative Label: "false"
